- method_summary: Pharmacokinetics study in mice
- Type: in vivo
- details: male, Kunming, mouse, plasma, po, p.o. 100 mg/kg, read-out: MRT0→t
reported_endpoint: MRT last

What does the record list as MRT last for c1cnc2ccc(Nc3ncnc4ccc(-c5cnn(C6CCNCC6)c5)cc34)cc2c1 ?
6.32 h

----------
- method_summary: Pharmacokinetics study in mice
- Assay type: in vivo
- details: male, Kunming, mouse, plasma, po, p.o. 100 mg/kg
reported_endpoint: AUC(0-inf)

What does the record list as AUC(0-inf) for c1cnc2ccc(Nc3ncnc4ccc(-c5cnn(C6CCNCC6)c5)cc34)cc2c1 [SMUZ106] ?
7510 ng·h/mL

----------
- method_summary: Pharmacokinetics study in mice
- Format: in vivo
- details: male, Kunming, mouse, plasma, po, p.o. 100 mg/kg
reported_endpoint: Tmax
Answer with the value and then the unit.

What does the record list as Tmax for c1cnc2ccc(Nc3ncnc4ccc(-c5cnn(C6CCNCC6)c5)cc34)cc2c1 [SMUZ106] ?
6 h

----------
- method_summary: Pharmacokinetics study in mice
- Format: in vivo
- details: male, Kunming, mouse, plasma, oral, p.o. 100 mg/kg vs i.v. 25 mg/kg, read-out: F (absolute bioavailability)
reported_endpoint: bioavailability (%)
One number for each entry, in %.

What does the record list as bioavailability for c1cnc2ccc(Nc3ncnc4ccc(-c5cnn(C6CCNCC6)c5)cc34)cc2c1 ?
29

----------
- method_summary: Solubility by HPLC
- Format: physicochemical
- details: normal saline, saline or isotonic
reported_endpoint: solubility

What does the record list as solubility for c1cnc2ccc(Nc3ncnc4ccc(-c5cnn(C6CCNCC6)c5)cc34)cc2c1 [SMUZ106] ?
3690 µg/mL

----------
- method_summary: Solubility by HPLC
- Format: physicochemical
- details: artificial gastric juice, simulated gastric fluid
reported_endpoint: solubility (mg/mL)
Numbers only, in mg/mL.

What does the record list as solubility for c1cnc2ccc(Nc3ncnc4ccc(-c5cnn(C6CCNCC6)c5)cc34)cc2c1 ?
16.8

----------
- method_summary: Pharmacokinetics study in mice
- Format: in vivo
- details: male, Kunming, mouse, plasma, po, p.o. 100 mg/kg
reported_endpoint: half-life (min)
Numbers only, in min.

What does the record list as half-life for c1cnc2ccc(Nc3ncnc4ccc(-c5cnn(C6CCNCC6)c5)cc34)cc2c1 [SMUZ106] ?
52.2

----------
- Test system: U87MG cells
- method_summary: MTT cell viability assay
- Assay type: cell-based
- details: Homo sapiens, U-87 MG, 72 h
Please respond with reported pIC50 for every item in the list.
Give bare numbers, as −log10 of the molar value.

1. Cn1nnc2c(C(N)=O)ncn2c1=O [TMZ, temozolomide, reference compound] = 3.30

// moving on: another record for pIC50
What does the record list as pIC50 for c1cnc2ccc(Nc3ncnc4ccc(-c5cnn(C6CCNCC6)c5)cc34)cc2c1 [SMUZ106] ?
5.13

----------
- method_summary: Solubility by HPLC
- Assay type: physicochemical
- details: medium not named in the sentence (values match artificial gastric juice of Table S2)
reported_endpoint: solubility (mg/mL)
Numbers only, in mg/mL.

What does the record list as solubility for c1cnc2ccc(Nc3ncnc4ccc(-c5cnn(C6CCNCC6)c5)cc34)cc2c1 ?
16.8
